# Test system: NCI-H23 lung
# testDescription: NCI tumour cell line growth inhibition, 48 h
Measured TGI by item

compound | TGI
Nc1ncc(-c2ccc3ncnc(N4CCc5ccc(Cl)cc54)c3c2)cn1 | > 100 µM
CC(C)(C)OC(=O)NC(Cc1ccc(OCc2ccccc2)cc1)C(=O)NC(COCc1ccccc1)C(=O)Oc1c(Cl)c(Cl)c(Cl)c(Cl)c1Cl (centres undefined) | 35.6 µM
N#CC12CC3=C(N=C1NC1=C(CCc4ccccc41)C2)c1ccccc1CC3 (centres undefined) | 39.2 µM
CCOC(=O)/C(=N/Nc1ccc(C)cc1)N1C(=S)C=C(C)NN(C)C1=S | > 100 µM
O=C1C(c2ccc([N+](=O)[O-])cc2)=[N+]([O-])c2ccc([N+](=O)[O-])cc21 | > 100 µM
COc1cc2c3c(n(CCCn4ccnc4)c(=O)c2cc1OC)-c1cc2c(cc1C3=O)OCO2 | 0.164 µM
CCCCCCCCCc1c(Cl)nc(Cl)nc1Cl | 25.7 µM
COc1ccc(/C=N/Nc2nc(-c3cc4oc(=O)n(C)c4cc3Cl)cs2)cc1OC | > 100 µM
CC1(c2ccccc2)N=C(C(N)=O)c2[nH]cnc2N1 (centres undefined) | > 100 µM
O=C1N[C@H](Cc2cnc[nH]2)C(=O)N2CCC[C@@H]12 | > 100 µM
c1ccc2nc3c(cc2c1)Sc1cc2ccccc2[n+]2c1N3CC2 | > 100 µM
CC(=O)N/N=C1/NN(C(C)=O)C2(S1)C(=O)Nc1ccc(C)cc12 (centres undefined) | > 100 µM
COc1ccc([As]=[As]c2ccc(OC)c(NCS(=O)(=O)O)c2)cc1NCS(=O)(=O)O (centres undefined) | 8.62 µM
CCCCCCCCCCOC1C(C(O)CNCCCN(C)C)OC2OC3(CCCCC3)OC21 (centres undefined) | 3.01 µM
O=CC12c3ccccc3C(c3ccccc31)C1C(=O)NC(=O)C12 (centres undefined) | > 100 µM
O=C(OCc1ccccc1)N1N=NC2C1C1CC(OCc3ccccc3)(OCc3ccccc3)C2O1 (centres undefined) | > 100 µM
CCCCCCSC[C@H](OC(C)=O)[C@@H](OC(C)=O)[C@@H](OC(C)=O)[C@@H](COC(C)=O)OC(C)=O | > 100 µM
CN1CCC(SC2Cc3cc(Cl)ccc3Sc3ccccc32)CC1 (centres undefined) | 27.9 µM
CC(C)(c1cn(Cc2ccccc2)c2ccccc12)c1cn(Cc2ccccc2)c2ccccc12 | > 100 µM

* * *

# Test system: HCT-15 colon
# testDescription: NCI tumour cell line growth inhibition, 48 h

mol | systemUnderTest | unit | qual | TGI
COc1ccc(N2C(=O)/C(=C/c3ccc(N(CCC#N)CCC#N)cc3C)N=C2/C=C\c2ccccc2)cc1 | HCT-15 colon | µM | > | 100
CC(=O)NNc1nc(C)c(C(=O)NNC(=O)C(=O)Nc2c(C)cccc2C(C)C)s1 | HCT-15 colon | µM | > | 100
N#CCCN(c1ccc(/C=N/c2nc(-c3ccccc3)cs2)cc1)S(=O)(=O)c1ccccc1 | HCT-15 colon | µM | > | 100
Cn1c(-c2ccccc2)c2cc3nc4ccccc4nc3cc2c1-c1ccccc1 | HCT-15 colon | µM | = | 53.4
Cc1cc(C(=O)CBr)c(CN2C(=O)c3ccccc3C2=O)c(=O)n1C | HCT-15 colon | µM | = | 34.9
